Test system: PDE3B
Construct: Epac2-camps-PDE3B fusion biosensor
assay-comment: live-cell FRET with Epac-camps/PDE3B fusion biosensors in HEK293a cells
Format: cell-based
quantity-kind: IC50

molecule: CCCCNC(=O)NS(=O)(=O)c1ccc(C)cc1 [TOL, tolbutamide]
assayed-target: PDE3B
quantity-kind: IC50
value-observed: ~700 µM
